Test system: CYPSE (Flatsedge)
Test: Postemergence weed control under flooded paddy conditions
Format: in vivo, Cyperus serotinus
Details: Rate 0.2500 kg/ha, postemergence weeds, rated 3 to 4 weeks after treatment
assay_readout: Herbicidal rating CYPSE
Answers are plain numbers.

1. Cn1c(C(F)(F)F)cc(=O)n(-c2cc(/N=C3/SC(CC(=O)O)C(=O)N3CC(=O)O)c(Cl)cc2F)c1=O (stereo not shown) ... 0.0
2. C=CCN1C(=O)C(CC(=O)NC)SC1=Nc1cc(-n2c(=O)cc(C(F)(F)F)n(C)c2=O)c(F)cc1Cl (stereo not shown) ... 9.0
3. C=CCN1C(=O)C(CC(=O)NS(C)(=O)=O)SC1=Nc1cc(-n2c(=O)cc(C(F)(F)F)n(C)c2=O)c(F)cc1Cl (stereo not shown) ... 0.0
4. CC(C)OC(=O)CC1SC(=Nc2cc(-n3c(=O)cc(C(F)(F)F)n(C)c3=O)c(F)cc2Cl)N(C)C1=O (stereo not shown) ... 6.0
5. COC(=O)C(Cc1ccc(Cl)cc1)N1C(=O)CSC1=Nc1cc(-n2c(=O)cc(C(F)(F)F)n(C)c2=O)c(F)cc1Cl (racemic) ... 4.0
6. CN1C(=O)C(CC(=O)OCCF)SC1=Nc1cc(-n2c(=O)cc(C(F)(F)F)n(C)c2=O)c(F)cc1Cl (stereo not shown) ... 9.0

Now, please, on to the next compound.
Entry C=CCN1C(=O)C(CC(=O)OC)SC1=Nc1cc(-n2c(=O)cc(C(F)(F)F)n(C)c2=O)c(F)cc1Cl (stereo not shown) , Herbicidal rating CYPSE reported as 0.0

###

Tested on: ORYSAT (Rice, Tebonnet)
Test: Rice tolerance to post-transplant applications, flooded paddy conditions (Table III)
Type: in vivo, Oryza sativa, (L.) Tebonnet
Settings: in vivo
Can you tell me Herbicidal rating ORYSAT (rice tolerance) for the items I'm about to list?
Answers are plain numbers.

Sample answers from the record:
1) CCOC(=O)CN1C(=O)C(=Cc2ccccc2)SC1=Nc1cc(-n2c(=O)cc(C(F)(F)F)n(C)c2=O)c(F)cc1Cl ... 3.0
2) CCOC(=O)CN1C(=O)C(CC(=O)O)S/C1=N/c1cc(-n2c(=O)cc(C(F)(F)F)n(C)c2=O)c(F)cc1Cl (stereo not drawn) ... 0.0
3) CCC1SC(=Nc2cc(N3C(=O)C4=C(CCCC4)C3=O)c(F)cc2Cl)N(C)C1=O (stereo not drawn) ... 0.0

Please give Herbicidal rating ORYSAT (rice tolerance) for each item listed below.
1. C[C@@H](C(=O)O)N1C(=O)CS/C1=N/c1cc(-n2c(=O)cc(C(F)(F)F)n(C)c2=O)c(F)cc1Cl
2. CCOC(=O)CN1C(=O)C(Cc2ccccc2)SC1=Nc1cc(-n2c(=O)cc(C(F)(F)F)n(C)c2=O)c(F)cc1Cl (stereo not drawn)
3. CCOC(=O)CN1C(=O)C(CC(=O)O)SC1=Nc1cc(-n2c(=O)cc(C(F)(F)F)n(C)c2=O)c(Cl)cc1Cl (stereo not drawn)

Reply text:
1. 0.0
2. 0.0
3. 0.0

###

System: SETVI (Foxtail, Green)
Experiment: Preemergence herbicidal evaluation
Type: in vivo, Setaria viridis
Details: preemergence, 0.1250 kg/ha, rated 4-5 weeks after treatment, 0-9 scale
assay_readout: SETVI rating
Answers are plain numbers.

Please review the following examples before continuing.
1. CCOC(=O)CN1C(=O)C(CC(=O)NO)S/C1=N/c1cc(-n2c(=O)cc(C(F)(F)F)n(C)c2=O)c(F)cc1Cl (stereo not shown) ... 4.0
2. CC(C)OC(=O)CC1SC(=Nc2cc(-n3c(=O)cc(C(F)(F)F)n(C)c3=O)c(F)cc2Cl)N(C)C1=O (stereo not shown) ... 9.0
3. C#CCOC(=O)CC1SC(=Nc2cc(-n3c(=O)cc(C(F)(F)F)n(C)c3=O)c(F)cc2Cl)N(C)C1=O (stereo not shown) ... 9.0

We next turn to a different compound, shown below.
Query C=CCN1C(=O)C(CC(=O)NS(=O)(=O)CC)SC1=Nc1cc(-n2c(=O)cc(C(F)(F)F)n(C)c2=O)c(F)cc1Cl (stereo not shown) on SETVI (Foxtail, Green); SETVI rating returned: 0.0
